meta.source: paper PMC8938504

- experimental-system: 6×His-tagged AVR-Pia (Magnaporthe oryzae)
- Sequence (F7J0N2 982-1116): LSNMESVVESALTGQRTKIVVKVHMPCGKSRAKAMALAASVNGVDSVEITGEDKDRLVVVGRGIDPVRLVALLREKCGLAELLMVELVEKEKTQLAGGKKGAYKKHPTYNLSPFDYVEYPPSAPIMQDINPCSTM
- protocol-description: SPR; […] (single-cycle kinetics, […]; 25 °C; 20 mM Tris pH 8, 150 mM NaCl, 0.5 mM DTT; […]
- applied-conditions: both partners purified
property: Kd (µM)

[[record]]
binder = "MBP:RGA5_HMA (wild-type RGA5 HMA domain fused to the maltose-binding protein) (domain or fragment) SALTGQRTKIVVKVHMPCGKSRAKAMALAASVNGVDSVEITGEDKDRLVVVGRGIDPVRLVALLREKCGLAELLMVELVEKE"
endpoint_result = 7.2

